molecular target: T1, human CD38 on cells (human, UniProt P28907 1-300); assay: binding assays of Example 4
T1 construct: also called native CD38; CD38 on LP-1 myeloma cells, CD38-transfected NIH-3T3 cells, blood leukocytes, CD38-transfected DC27.10 cells
assay.metric: binding result

- binder: "WF129 (VHH, His6-Myc-tagged monovalent VHH; also called I-17.1b; family 18) VHH: DVQLQASGGGLVQAGGSLRLSCEFSGRTFSGFAMGWFRQFPGKEREFVAAINWSGSSVDYSDSVKGRFTISRDNVKSTMYLVMNSLKPEDTAVYYCAEARSAELGSSRKIQGYDQWGRGTQVTVSS"
  assay.metric: "binding result"
  experimental.value: "binds"
- binder: "MU727 (VHH, His6-Myc-tagged monovalent VHH; also called s-14.1d; family 9) VHH: DVQLQASGGGLVQAGGSLRLSCAGSGRTFSSYAMGWFRQAPGKEREFVASISWSGSRTNYGVPVKGRFTISRDNAKNTVYLQMSSLKPEDTAVYYCAADRFAVAIGTHDLDYWGQGTQVTVSS"
  assay.metric: "binding result"
  experimental.value: "binds"

All values here come from patent US20190276551A1.
